Where these numbers come from: paper PMC9497135

Biological target: AR (LNCaP cells, which carry the T878A AR mutation) (Homo sapiens, UniProt P10275, T878A)
Construct: LNCaP cells, which carry the T878A AR mutation; endogenous in cells; host or cells: LNCaP (LN-ARR2PB-eGFP)
Assay: eGFP cellular AR transcription assay in LNCaP cells (LN-ARR2PB-eGFP)
Format: cell-based
Conditions: eGFP-expressing LNCaP cells
Readout Label: Anti-AR activity in eGFP assay

{"Query Smiles": "c1cc(-c2csc(N3CCOCC3)n2)ccn1", "Result": "maintained good potency"}
{"Query Smiles": "c1cc(-c2csc(N3CCOCC3)n2)cs1", "Result": "maintained good potency"}
{"Query Smiles": "Brc1ncn(-c2csc(N3CCOCC3)n2)c1Br", "Result": "maintained good potency"}

###

Biological target: AR (LNCaP cells, which carry the T878A AR mutation) (Homo sapiens, UniProt P10275, T878A)
Construct: LNCaP cells, which carry the T878A AR mutation; endogenous in cells
Sequence (P10275 1-920 T878A): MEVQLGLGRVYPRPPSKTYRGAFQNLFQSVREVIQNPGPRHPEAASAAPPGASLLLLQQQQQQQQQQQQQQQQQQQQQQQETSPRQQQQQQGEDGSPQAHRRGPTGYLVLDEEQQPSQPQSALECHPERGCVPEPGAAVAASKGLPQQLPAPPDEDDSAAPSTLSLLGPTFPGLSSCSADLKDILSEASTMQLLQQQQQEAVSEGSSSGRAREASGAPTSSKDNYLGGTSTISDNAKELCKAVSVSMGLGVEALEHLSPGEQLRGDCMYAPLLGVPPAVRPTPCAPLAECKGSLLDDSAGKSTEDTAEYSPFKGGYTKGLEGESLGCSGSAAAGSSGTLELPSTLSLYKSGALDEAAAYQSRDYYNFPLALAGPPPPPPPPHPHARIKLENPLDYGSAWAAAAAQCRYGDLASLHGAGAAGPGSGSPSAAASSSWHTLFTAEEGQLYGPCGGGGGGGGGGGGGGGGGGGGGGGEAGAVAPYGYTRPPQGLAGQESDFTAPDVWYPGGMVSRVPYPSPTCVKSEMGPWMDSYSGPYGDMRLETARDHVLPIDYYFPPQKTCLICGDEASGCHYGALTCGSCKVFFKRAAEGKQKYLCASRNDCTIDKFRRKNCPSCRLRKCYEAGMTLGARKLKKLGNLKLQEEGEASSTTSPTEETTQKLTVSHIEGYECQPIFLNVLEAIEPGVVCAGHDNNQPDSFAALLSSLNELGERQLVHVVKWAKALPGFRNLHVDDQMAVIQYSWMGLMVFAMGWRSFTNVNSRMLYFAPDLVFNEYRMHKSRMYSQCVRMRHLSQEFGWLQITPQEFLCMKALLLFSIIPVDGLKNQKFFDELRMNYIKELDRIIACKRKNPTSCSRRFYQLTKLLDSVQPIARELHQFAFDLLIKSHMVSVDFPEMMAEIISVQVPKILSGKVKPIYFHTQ
Experiment: eGFP cellular AR transcription assay in LNCaP cells (LN-ARR2PB-eGFP)
Conditions: LNCaP eGFP reporter (ARR2PB promoter), 0.1 nM R1881, 3 days
Readout Label: pIC50
Would you please state pIC50, meaning minus log10 of the concentration in mol/L, as a bare number?

Recorded pIC50 of Brc1ncn(-c2csc(N3CCOCC3)n2)c1Br [VPC14449] , please.
6.82

###

Molecular target: Androgen Receptor ABS (Rattus norvegicus, UniProt P15207)
Construct: purchased
Sequence (P15207 647-902 limits assumed): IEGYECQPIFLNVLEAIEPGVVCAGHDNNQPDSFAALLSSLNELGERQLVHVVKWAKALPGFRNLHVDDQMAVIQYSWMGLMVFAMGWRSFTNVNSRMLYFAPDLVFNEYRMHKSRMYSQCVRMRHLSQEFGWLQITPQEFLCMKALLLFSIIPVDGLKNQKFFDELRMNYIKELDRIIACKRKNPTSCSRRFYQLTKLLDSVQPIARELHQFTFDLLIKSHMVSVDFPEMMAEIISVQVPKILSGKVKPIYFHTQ
Test: Androgen (DHT) displacement, Polar Screen Androgen Receptor Competitor Green Assay Kit
Format: binding
Details: fluorescence polarization kit
Readout Label: Androgen Displacement (Yes/No)

{"Query Smiles": "c1cc(-c2csc(N3CCOCC3)n2)ccn1", "Result": "No"}
{"Query Smiles": "c1ccc(-c2csc(N3CCOCC3)n2)nc1", "Result": "No"}
{"Query Smiles": "c1cncc(-c2csc(N3CCOCC3)n2)c1", "Result": "Yes"}
{"Query Smiles": "COc1c(F)cccc1-c1csc(N2CCOCC2)n1", "Result": "Yes"}
